- System: P493-6 (myc "on") cells
- PROCEDURE_SUMMARY: Cell Proliferation Assay
- Format: cell-based
- CONDITION_LABEL: read-out: Cell prolif P493 72 h IC50; P493-6 cells, 72 h incubation
READOUT_TYPE: IC50 (nM)
Answer format: numeric, nM implied, no suffix.

// IC50 (P493-6 (myc "on") cells) for "COc1ccc(OC(F)(F)F)cc1CC(=O)Nc1ccc(CCCCc2nnc(NC(=O)Cc3ccccn3)s2)nn1" = 19
